# ASSAY_INFO: Cytotoxicity against human HEK293T cells assessed as cell growth inhibition by MTT assay
# Type: toxicity, cell-based, HEK-293T
MEASUREMENT_KIND: CC50

**Q:** Fill in the blank: the reported CC50 of COc1cc2c(cc1Cc1cccc(Cl)c1F)c(=O)c(C(=O)O)cn2[C@H](CO)C(C)C is ____.
**A:** > 250 µM
